Collected IC50 values appear next to each entry.
- system: UniProtKB P06493
- Sequence (P06493 whole entry): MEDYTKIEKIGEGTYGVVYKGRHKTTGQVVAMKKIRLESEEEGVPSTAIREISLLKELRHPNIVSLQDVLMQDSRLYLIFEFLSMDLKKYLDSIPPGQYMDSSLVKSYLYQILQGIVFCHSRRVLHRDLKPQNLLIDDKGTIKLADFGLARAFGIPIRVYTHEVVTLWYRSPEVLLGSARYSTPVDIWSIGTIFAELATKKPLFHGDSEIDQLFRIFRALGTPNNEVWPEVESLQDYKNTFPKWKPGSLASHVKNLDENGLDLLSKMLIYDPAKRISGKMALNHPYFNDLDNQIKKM
- Sequence (P14635 whole entry partner): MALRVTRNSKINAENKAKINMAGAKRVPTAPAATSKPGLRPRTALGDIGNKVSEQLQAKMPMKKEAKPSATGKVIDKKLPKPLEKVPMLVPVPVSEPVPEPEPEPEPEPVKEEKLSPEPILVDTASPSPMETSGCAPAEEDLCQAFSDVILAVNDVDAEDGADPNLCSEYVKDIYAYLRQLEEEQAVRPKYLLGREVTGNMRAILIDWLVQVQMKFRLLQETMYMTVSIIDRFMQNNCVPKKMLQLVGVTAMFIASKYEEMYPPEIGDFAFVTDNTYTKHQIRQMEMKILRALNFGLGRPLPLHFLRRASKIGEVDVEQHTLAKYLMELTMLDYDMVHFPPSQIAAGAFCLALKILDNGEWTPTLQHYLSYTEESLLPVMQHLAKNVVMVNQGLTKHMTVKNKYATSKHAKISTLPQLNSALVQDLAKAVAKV
- assay_method_text: Kinase selectivity profiling, Z'-LYTE FRET
assay_readout: IC50

INSERT INTO measurements (molecule, obs_value) VALUES
  ('CCOC(=O)c1sc(N2N=C(c3ccc(Cl)cc3Cl)CC2c2ccc(OC)cc2)nc1C (centres unmarked) [Compound 10b]', '310 nM'),
  ('COc1ccc(C2CC(c3ccc(Cl)cc3Cl)=NN2c2nc(C)c(C(=O)Nc3ccccc3)s2)cc1OC (centres unmarked) [Compound 10d]', '245 nM');

---

- Tested on: H441 lung cancer cells
- assay_method_text: Anti-proliferative MTT assay
- protocol_conditions: Homo sapiens, NCI-H441, 24 h, read-out: % Growth inhibition ± SEM H441
Collected inhibition at 10 µM values appear next to each entry.
assay_readout: inhibition at 10 µM

INSERT INTO assay_data (compound, assay_readout, obs_value) VALUES
  ('COc1ccc(C2CC(c3ccc(Cl)cc3Cl)=NN2c2nc(C)c(C(=O)Nc3ccccc3)s2)cc1OC (centres unmarked) [Compound 10d]', 'inhibition at 10 µM', '89.2%'),
  ('COc1ccc(C2CC(c3ccc(Cl)cc3Cl)=NN2c2nc(C)c(N=Nc3ccc(C)cc3)s2)cc1 (centres unmarked) [Compound 13b]', 'inhibition at 10 µM', '23.3%'),
  ('COc1ccc(C2CC(c3ccc(Cl)cc3Cl)=NN2c2nc(-c3ccc(Cl)cc3)cs2)cc1 (centres unmarked) [Compound 7b]', 'inhibition at 10 µM', '35.2%'),
  ('COc1ccc(C2CC(c3ccc(Cl)cc3Cl)=NN2c2nc(C)c(N=Nc3ccccc3)s2)cc1 (centres unmarked) [Compound 13a]', 'inhibition at 10 µM', '22.2%'),
  ('COc1ccc(C2CC(c3ccc(Cl)cc3Cl)=NN2c2nc(-c3ccccc3)cs2)cc1OC (centres unmarked) [Compound 7c]', 'inhibition at 10 µM', '16.2%'),
  ('COc1ccc(C2CC(c3ccc(Cl)cc3Cl)=NN2c2nc(C)c(C(=O)Nc3ccccc3)s2)cc1 (centres unmarked) [Compound 10c]', 'inhibition at 10 µM', '8.7%'),
  ('COc1ccc(C2CC(c3ccc(Cl)cc3Cl)=NN2c2nc(C)c(N=Nc3ccccc3)s2)cc1OC (centres unmarked) [Compound 13d]', 'inhibition at 10 µM', '38.9%'),
  ('COc1ccc(C2CC(c3ccc(Cl)cc3Cl)=NN2c2nc(C)c(C(C)=O)s2)cc1 (centres unmarked) [Compound 10a]', 'inhibition at 10 µM', '6.3%'),
  ('COc1ccc(C2CC(c3ccc(Cl)cc3Cl)=NN2c2nc(C)c(N=Nc3ccc(Cl)cc3)s2)cc1OC (centres unmarked) [Compound 13f]', 'inhibition at 10 µM', '17.3%'),
  ('COc1ccc(C2CC(c3ccc(Cl)cc3Cl)=NN2c2nc(C)c(N=Nc3ccc(Cl)cc3)s2)cc1 (centres unmarked) [Compound 13c]', 'inhibition at 10 µM', '19.9%'),
  ('COc1ccc(C2CC(c3ccc(Cl)cc3Cl)=NN2c2nc(-c3ccc(Cl)cc3)cs2)cc1OC (centres unmarked) [Compound 7d]', 'inhibition at 10 µM', '34.8%'),
  ('COc1ccc(C2CC(c3ccc(Cl)cc3Cl)=NN2c2nc(-c3ccccc3)cs2)cc1 (centres unmarked) [Compound 7a]', 'inhibition at 10 µM', '36.1%'),
  ('COc1ccc(C2CC(c3ccc(Cl)cc3Cl)=NN2c2nc(C)c(N=Nc3ccc(C)cc3)s2)cc1OC (centres unmarked) [Compound 13e]', 'inhibition at 10 µM', '46.9%'),
  ('CCOC(=O)c1sc(N2N=C(c3ccc(Cl)cc3Cl)CC2c2ccc(OC)cc2)nc1C (centres unmarked) [Compound 10b]', 'inhibition at 10 µM', '79.1%');
